target: hCA XII (Homo sapiens); assay: stopped-flow CO2 hydrase assay, hCA XII
Sequence (O43570 25-354): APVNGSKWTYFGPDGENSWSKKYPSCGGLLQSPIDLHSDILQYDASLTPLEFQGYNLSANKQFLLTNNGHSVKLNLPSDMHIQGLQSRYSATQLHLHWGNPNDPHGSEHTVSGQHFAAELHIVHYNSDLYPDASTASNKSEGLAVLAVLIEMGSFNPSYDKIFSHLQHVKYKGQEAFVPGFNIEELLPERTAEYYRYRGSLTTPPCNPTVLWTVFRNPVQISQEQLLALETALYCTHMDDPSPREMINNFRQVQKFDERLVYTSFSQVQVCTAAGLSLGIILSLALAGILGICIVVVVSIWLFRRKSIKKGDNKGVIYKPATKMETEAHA
READOUT KIND: Ki (nM)
Please state the figure in nM; there is no need to write the unit.

Below: 5 molecules and their reported Ki.
# MOLECULE, Ki / nM
rows = [
    ("Cc1cc(=O)oc2cc(O)ccc12 [Compound 1, 7-Hydroxy-4-methylchromen-2-one]", 5.8),
    ("CCN1CCN(Cc2c(O)ccc3c(C)cc(=O)oc23)CC1 [Compound 4]", 6.4),
    ("Cc1cc(=O)oc2c(CN3CCN(c4ccccc4)CC3)c(O)ccc12 [Compound 7]", 7.7),
    ("Cc1cc(=O)oc2c(CN3CCN(c4ccc(Br)cc4)CC3)c(O)ccc12 [Compound 10]", 9.4),
    ("Cc1cc(=O)oc2c(CN3CCN(c4ccc(Cl)cc4)CC3)c(O)ccc12 [Compound 8]", 8.9),
]

With those in mind, consider the next molecule.
Fill in the blank: the reported Ki of Cc1ccc(N2CCN(Cc3c(O)ccc4c(C)cc(=O)oc34)CC2)cc1 [Compound 11] is ____.
9.6

====

Reported values: pKi for UniProt P00918, one per item.
pKi: −log10 of the molar value.

# COMPOUND, pKi
records = [
    ("Cc1cc(=O)oc2c(CN3CCN(CCO)CC3)c(O)ccc12 [Compound 5]", "< 5.00"),
    ("Cc1cc(=O)oc2c(CN3CCN(C)CC3)c(O)ccc12 [Compound 3]", "< 5.00"),
    ("Cc1cc(=O)oc2c(CN3CCN(c4ccc(F)cc4)CC3)c(O)ccc12 [Compound 9]", "< 5.00"),
]

With those in mind, consider the next compound.
Fill in the blank: the reported pKi of Cc1cc(=O)oc2c(CN3CCN(c4ccccc4)CC3)c(O)ccc12 [Compound 7] is ____.
< 5.00

====

molecular target: hCA IX (Homo sapiens); test: stopped-flow CO2 hydrase assay, hCA IX; conditions: read-out: Ki (nM) hCA IX; recombinant hCA IX; 6 h preincubation; mean from three assays, errors ±5–10%
READOUT KIND: Ki (nM)
Please state the figure in nM; there is no need to write the unit.

Fill in the blank: the reported Ki of C=CCN1CCN(Cc2c(O)ccc3c(C)cc(=O)oc23)CC1 is ____.
27.1

====

molecular target: UniProt:Q16790; assay: stopped-flow CO2 hydrase assay, hCA IX; settings: Ki (nM) hCA IX, recombinant hCA IX; 6 h preincubation; mean from three assays, errors ±5–10%
Lab note: cut-off is 90 nM. Strictly less in Ki is criterion met. Exactly 90 nM or more is criterion not met.

See these solved cases before continuing.
# COMPOUND, MEASURED TARGET, ANSWER LABEL
records = [
    ("Cc1cc(=O)oc2c(CN3CCN(Cc4ccc5c(c4)OCO5)CC3)c(O)ccc12 [Compound 13]", "UniProt:Q16790", "criterion met"),
    ("Cc1cc(=O)oc2c(CN3CCN(c4ccccc4F)CC3)c(O)ccc12 [Compound 12]", "UniProt:Q16790", "criterion not met"),
    ("Cc1cc(=O)oc2cc(O)ccc12 [Compound 1, 7-Hydroxy-4-methylchromen-2-one]", "UniProt:Q16790", "criterion met"),
    ("Cc1cc(=O)oc2c(CN3CCN(c4ccccc4)CC3)c(O)ccc12 [Compound 7]", "UniProt:Q16790", "criterion not met"),
    ("Cc1cc(=O)oc2c(CN3CCN(Cc4c(O)ccc5c(C)cc(=O)oc45)CC3)c(O)ccc12 [Compound 2]", "UniProt:Q16790", "criterion met"),
    ("Cc1cc(=O)oc2c(CN3CCN(c4ccc(F)cc4)CC3)c(O)ccc12 [Compound 9]", "UniProt:Q16790", "criterion not met"),
]

Does the reported Ki of Cc1cc(=O)oc2c(CN3CCN(CCO)CC3)c(O)ccc12 [Compound 5] stay below 90 nM?
criterion not met

And for Cc1cc(=O)oc2c(CN3CCN(c4ccc(Cl)cc4)CC3)c(O)ccc12 [Compound 8] ?
criterion not met

====

target: hCA IX (Homo sapiens, UniProt Q16790); experiment: stopped-flow CO2 hydrase assay, hCA IX; conditions: Ki (nM) hCA IX, recombinant hCA IX; 6 h preincubation; mean from three assays, errors ±5–10%
Reported Ki is given for each of the following molecules.
Write your answer as a measured quantity: the number, then the unit.

Below: 2 molecules and their reported Ki.
# MOLECULE, Ki
data = [
    ("CCN1CCN(Cc2c(O)ccc3c(C)cc(=O)oc23)CC1 [Compound 4]", "32 nM"),
    ("Cc1ccc(N2CCN(Cc3c(O)ccc4c(C)cc(=O)oc34)CC2)cc1 [Compound 11]", "308 nM"),
]

Fill in the blank: the reported Ki of Cc1cc(=O)oc2c(CN3CCN(c4ccc(Br)cc4)CC3)c(O)ccc12 [Compound 10] is ____.
162 nM

====

Reported pKi is given for each of the following molecules.
target: UniProt:P00918
pKi: −log10 of the molar value.

Below: 2 molecules and their reported pKi.
# MOLECULE, MEASURED TARGET, READOUT KIND, OBSERVED MEASUREMENT
records = [
    ("Cc1cc(=O)oc2cc(O)ccc12 [Compound 1, 7-Hydroxy-4-methylchromen-2-one]", "UniProt:P00918", "pKi", "< 5.00"),
    ("C=CCN1CCN(Cc2c(O)ccc3c(C)cc(=O)oc23)CC1", "UniProt:P00918", "pKi", "< 5.00"),
]

With those in mind, consider the next molecule.
Fill in the blank: the reported pKi of Cc1ccc(N2CCN(Cc3c(O)ccc4c(C)cc(=O)oc34)CC2)cc1 is ____.
< 5.00
